Numbers sourced from patent US9926282B2.

# IC50 values compiled below
# TARGET OR SYSTEM: UniProt:Q13464
# Sequence (Q13464 whole entry, species assumed): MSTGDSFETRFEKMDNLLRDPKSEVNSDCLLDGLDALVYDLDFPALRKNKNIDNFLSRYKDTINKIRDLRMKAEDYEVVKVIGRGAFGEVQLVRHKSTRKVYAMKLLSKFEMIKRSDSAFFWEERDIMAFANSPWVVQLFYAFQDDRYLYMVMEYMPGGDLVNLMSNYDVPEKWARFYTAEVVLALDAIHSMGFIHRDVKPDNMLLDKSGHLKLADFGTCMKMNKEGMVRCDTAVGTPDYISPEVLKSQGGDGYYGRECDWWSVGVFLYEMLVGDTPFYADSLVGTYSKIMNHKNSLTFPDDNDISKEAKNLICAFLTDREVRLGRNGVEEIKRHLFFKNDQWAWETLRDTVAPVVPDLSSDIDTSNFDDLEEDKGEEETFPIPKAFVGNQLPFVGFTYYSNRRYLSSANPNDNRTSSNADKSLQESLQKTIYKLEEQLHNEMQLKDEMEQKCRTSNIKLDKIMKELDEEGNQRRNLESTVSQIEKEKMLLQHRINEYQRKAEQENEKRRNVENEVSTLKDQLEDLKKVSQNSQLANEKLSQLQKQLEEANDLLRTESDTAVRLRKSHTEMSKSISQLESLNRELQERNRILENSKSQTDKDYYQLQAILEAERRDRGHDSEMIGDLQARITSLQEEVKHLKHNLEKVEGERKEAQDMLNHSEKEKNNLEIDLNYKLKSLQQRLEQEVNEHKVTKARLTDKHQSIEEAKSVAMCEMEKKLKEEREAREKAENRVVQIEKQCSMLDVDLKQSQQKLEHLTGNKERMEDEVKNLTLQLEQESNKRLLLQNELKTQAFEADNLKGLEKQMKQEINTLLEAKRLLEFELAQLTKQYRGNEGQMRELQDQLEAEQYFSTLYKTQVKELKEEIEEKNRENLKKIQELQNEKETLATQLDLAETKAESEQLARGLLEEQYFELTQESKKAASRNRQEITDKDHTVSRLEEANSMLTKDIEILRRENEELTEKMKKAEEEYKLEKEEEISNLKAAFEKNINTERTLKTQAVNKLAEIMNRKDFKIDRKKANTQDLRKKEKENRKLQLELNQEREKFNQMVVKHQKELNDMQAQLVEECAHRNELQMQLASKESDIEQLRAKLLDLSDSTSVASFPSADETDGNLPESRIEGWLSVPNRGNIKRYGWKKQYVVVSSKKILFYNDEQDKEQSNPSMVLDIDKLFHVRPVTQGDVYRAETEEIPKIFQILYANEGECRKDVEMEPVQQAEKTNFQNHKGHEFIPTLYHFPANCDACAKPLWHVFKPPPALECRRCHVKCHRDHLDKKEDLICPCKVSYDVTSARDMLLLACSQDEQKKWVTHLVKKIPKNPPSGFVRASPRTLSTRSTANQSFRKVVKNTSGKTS
# PROTOCOL TEXT: ROCK assay (LABCHIP peptide phosphorylation), ROCK1
# Format: biochemical
# ASSAY CONTEXT: 5 μM ATP, 1.5 μM peptide substrate; read-out: ROCK1 IC50
Counter-ions that a name gives are not always drawn.

# get_value(readout='IC50', item= Cc1ccn2c(C(=O)Nc3ccc(-c4n[nH]c(=O)c5ccccc45)cc3)c(C)nc2c1 )
0.1 to 100 nM

Can you look up the measured IC50 of COc1ccc2c(=O)[nH]cc(-c3ccc(CC(=O)N4Cc5ccccc5C4)cc3)c2c1 for me?
101 to 1000 nM

Given the compound CC(C)n1nc(C(=O)Nc2ccc(-c3n[nH]c(=O)c4ccccc34)c(CO)c2)c2ccccc21 , what is its reported IC50?
101 to 1000 nM

Report IC50 for O=C(Nc1ccc(-c2n[nH]c(=O)c3ccccc23)cc1)c1cnn(CC(F)(F)C(F)F)c1 [Example 383, TFA] please.
101 to 1000 nM

--- query ---
Please give the measured IC50 for this compound: O=C(Nc1ccc(-c2n[nH]c(=O)c3ccccc23)cc1)c1n[nH]c(-c2ccccn2)n1
101 to 1000 nM
